The reported measurements were obtained from ChEMBL document CHEMBL1201862.

Tested on: EKVX
Assay: NCI tumour cell line growth inhibition, 48 h
The source made the active and inactive calls. No stated cut-off is given here; in the data, active = GI50 up to about 1.1 µM and inactive = higher.
# key: entry, value: GI50
experimental-readout: GI50

[[record]]
molecule = "CCOC(=O)Oc1ccc(C(CNC(C)C)OC(=O)OCC)cc1OC(=O)OCC (stereo not drawn)"
experimental_result = "> 100 µM (inactive)"

[[record]]
molecule = "CC1=NN(C(=O)CC(=O)Nc2ccccc2C)C(=O)C1/N=N/c1ccc(C(=O)O)cc1 (stereo not drawn)"
experimental_result = "> 100 µM (inactive)"

[[record]]
molecule = "O=C(O)Cc1c[nH]c2ccc(F)cc12"
experimental_result = "> 100 µM (inactive)"

[[record]]
molecule = "COc1cc(C(=O)/C=C/c2ccc(OCCSCCCCCCCCCCSCCOc3ccc(/C=C/C(=O)c4cc(OC)c(OC)c(OC)c4)cc3)cc2)cc(OC)c1OC"
experimental_result = "> 100 µM (inactive)"

[[record]]
molecule = "Cc1ccc(C)c(NC(=O)CCc2nnc(S)[nH]2)c1"
experimental_result = "> 100 µM (inactive)"

[[record]]
molecule = "Cc1nn(-c2ccccc2)c2c1C(c1cc3ccccc3nc1Cl)NC(=S)N2 (stereo not drawn)"
experimental_result = "92.7 µM (inactive)"

[[record]]
molecule = "Cn1c2ccccc2c2[nH]c3ccccc3c(=O)c21"
experimental_result = "> 100 µM (inactive)"

[[record]]
molecule = "COc1ccc(/C=C2/C(=O)N(C(=O)c3ccccc3O)N=C2C)cc1OC"
experimental_result = "1.38 µM (inactive)"


====

System: EKVX
Assay: NCI tumour cell line growth inhibition, 48 h
Calls of active or inactive are those of the source. Cut-off read from the data, not from the text of the source: active = GI50 up to about 1.1 µM and inactive = higher.
# key: entry, value: GI50
experimental-readout: GI50

[[record]]
molecule = "O=[N+]([O-])c1ccc(/N=N\\c2c(O)ccc3ccccc23)c([N+](=O)[O-])c1"
experimental_readout = "GI50"
experimental_result = "> 60.4 µM (inactive)"

[[record]]
molecule = "O=c1[nH]nc(-c2ccccc2)n1/N=C/c1ccc([N+](=O)[O-])cc1"
experimental_readout = "GI50"
experimental_result = "> 80.4 µM (inactive)"

[[record]]
molecule = "OCC(CN1CCCCC1)(CN1CCCCC1)CN1CCCCC1"
experimental_readout = "GI50"
experimental_result = "> 100 µM (inactive)"

[[record]]
molecule = "CN(C)Cc1cc(/N=N/c2ccccc2Cl)ccc1O"
experimental_readout = "GI50"
experimental_result = "49.3 µM (inactive)"

[[record]]
molecule = "CCC1(c2ccccc2)C(=O)N=C(c2ccccc2)N1CCc1ccccc1 (configuration not stated)"
experimental_readout = "GI50"
experimental_result = "> 100 µM (inactive)"

[[record]]
molecule = "CSC1=C(C)C(/C=N/Nc2ccc([N+](=O)[O-])cc2)=C(C)N(c2ccccc2)S1(=O)=O"
experimental_readout = "GI50"
experimental_result = "33.9 µM (inactive)"

[[record]]
molecule = "CCOC(=O)c1c(N=P(c2ccccc2)(c2ccccc2)c2ccccc2)nnc(-c2ccccc2)c1-c1ccccc1"
experimental_readout = "GI50"
experimental_result = "> 100 µM (inactive)"


====

Tested on: K562
Test: NCI tumour cell line growth inhibition, 48 h
Where a name gives a salt, the structure may show the parent alone. The source made the active and inactive calls. No stated cut-off is given here; in the data, active = GI50 up to about 1.1 µM and inactive = higher.
# key: entry, value: GI50
experimental-readout: GI50

[[record]]
compound = "[Zn+2][N+]12CCN3CCN4CCN(CC1)[PH]432 (configuration not stated)"
tgt = "K562"
experimental_readout = "GI50"
experimental_result = "> 100 µM (inactive)"

[[record]]
compound = "O=C(Nc1ccc2ncccc2c1)Nc1ccc2ncccc2c1"
tgt = "K562"
experimental_readout = "GI50"
experimental_result = "> 100 µM (inactive)"

[[record]]
compound = "CCOC(=O)C(NC(=O)Nc1ccccc1)(Nc1cccc(Cl)c1)C(F)(F)F (configuration not stated)"
tgt = "K562"
experimental_readout = "GI50"
experimental_result = "> 100 µM (inactive)"

[[record]]
compound = "O=C1CCC(=O)N1Sc1ccccc1"
tgt = "K562"
experimental_readout = "GI50"
experimental_result = "> 100 µM (inactive)"

[[record]]
compound = "Cc1cc2c(c(C(=O)O)c1C)-c1cccc(Cl)c1C2=O"
tgt = "K562"
experimental_readout = "GI50"
experimental_result = "> 100 µM (inactive)"

[[record]]
compound = "CC(=O)C(C(=O)C(=O)Nc1cc(Cl)c(Cl)cc1Cl)c1csc(N)n1 (configuration not stated)"
tgt = "K562"
experimental_readout = "GI50"
experimental_result = "> 100 µM (inactive)"

[[record]]
compound = "O=C1NCC(NC(=O)C(F)(F)F)c2c(Br)sc(Br)c21 (configuration not stated)"
tgt = "K562"
experimental_readout = "GI50"
experimental_result = "> 100 µM (inactive)"

[[record]]
compound = "O=C(/C=C1/NC(=O)CS1)Nc1ccccc1"
tgt = "K562"
experimental_readout = "GI50"
experimental_result = "> 100 µM (inactive)"

[[record]]
compound = "O=S(=O)(Nc1nc2ccccc2nc1N1CCCCCC1)c1ccccc1"
tgt = "K562"
experimental_readout = "GI50"
experimental_result = "> 100 µM (inactive)"

[[record]]
compound = "O=C1CN2CCN(CC2)CC(=O)Nc2ccc(cc2)S(=O)(=O)c2ccc(cc2)NC(=O)CN2CCN(CC2)CC(=O)Nc2ccc(cc2)S(=O)(=O)c2ccc(cc2)N1"
tgt = "K562"
experimental_readout = "GI50"
experimental_result = "15.8 µM (inactive)"

[[record]]
compound = "O=C1NC(S(=O)(=O)O)=NNC12c1ccccc1-c1ccccc12"
tgt = "K562"
experimental_readout = "GI50"
experimental_result = "> 10 µM (inactive)"

[[record]]
compound = "CCN(CC)CCNc1ccc(C)c2sc3ccccc3c(=O)c12 [LUCANTHONE HYDROCHLORIDE]"
tgt = "K562"
experimental_readout = "GI50"
experimental_result = "1.97 µM (inactive)"

[[record]]
compound = "C=C(CN(C)C)C(=O)c1cc(C)ccc1C"
tgt = "K562"
experimental_readout = "GI50"
experimental_result = "0.791 µM (active)"

[[record]]
compound = "Oc1c(Br)cc(Br)cc1CN(Cc1cc(Br)cc(Br)c1O)C1CCCCC1"
tgt = "K562"
experimental_readout = "GI50"
experimental_result = "31.6 µM (inactive)"

[[record]]
compound = "COC(=O)/C(=N/NC(=O)C[N+](C)(C)C)C(C(=O)OC)C(=O)C(=O)Nc1ccc(F)cc1 (configuration not stated)"
tgt = "K562"
experimental_readout = "GI50"
experimental_result = "> 100 µM (inactive)"

[[record]]
compound = "O=C(N/N=C(/c1nc2ccc(Cl)cc2[nH]c1=O)C(O)c1ccc(Cl)cc1Cl)c1ccncc1 (configuration not stated)"
tgt = "K562"
experimental_readout = "GI50"
experimental_result = "> 100 µM (inactive)"

[[record]]
compound = "O=[N+]([O-])c1cc(Cl)cc2cc(Cl)cnc12"
tgt = "K562"
experimental_readout = "GI50"
experimental_result = "> 100 µM (inactive)"

